Reference for the values: patent US7754689B2

measured_target: T1, BMP-12 (UniProt Q7Z4P5 322-450, limits assumed)
T1 construct: also called BMP12/GDF7
T1 sequence (looked up): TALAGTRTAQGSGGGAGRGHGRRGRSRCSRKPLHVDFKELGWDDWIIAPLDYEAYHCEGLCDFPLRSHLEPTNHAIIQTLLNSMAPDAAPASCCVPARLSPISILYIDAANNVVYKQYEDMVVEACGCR
assay_summary: peptide resin, filter plate; load 1: 50 mM Acetic Acid, 0.1 M NaCl, pH 2.9
No end group written: not given here.
// Flow-through conc lookup, one value per entry

binder | Flow-through conc
Ac-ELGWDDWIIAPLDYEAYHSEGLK [BMP12 N-trun_1S peptide 749] | 0.175 mg/mL
Ac-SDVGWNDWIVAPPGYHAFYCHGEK [BMP2 N-trun peptide 750] | 0.337 mg/mL
Ac-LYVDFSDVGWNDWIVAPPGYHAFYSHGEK [BMP2 Full peptide 747] | 0.114 mg/mL
Ac-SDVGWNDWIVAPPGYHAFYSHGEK [BMP2 N-trun 1S peptide 751] | 0.349 mg/mL
Ac-VAPPGYHAFYSHGEK [BMP2 N-trunc_2 peptide 745] | 0.397 mg/mL
Ac-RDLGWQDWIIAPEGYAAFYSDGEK [BMP5 peptide 748] | 0.106 mg/mL
Ac-LYVSDVGWNDWIVK (not fully specified (residue 3); printed as Ac-LYV**SDVGWNDWIVK; also: ** after V3 not explained) [BMP2 C-trunc_2 peptide 746] | 0.15 mg/mL
